Field: RAMPO Score. Provide a value for each of the binders that follow.
- Target Under Test: T1, His-tagged P3028 (human, also: His-tag, terminus and sequence not given here)
- T1 construct: in solution at 0.5 ug/mL over the peptide cards; found with anti-His-tag antibody and rabbit anti-mouse peroxidase (rampo); also called PGE73; not shown: His-tag
- T1 peptide: VFDEFKPLVEEPQNLIK
- Assay Summary: PEPSCAN chip ELISA, His-P3028 in solution;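 note: score is the raw OD at 405 nm from peroxidase colour with ABTS, imaged by CCD camera before and after staining, with wells showing air bubbles set to zero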
No end group written: not given here.
Answers are plain numbers, in rampo score.

Here are 6 binders together with their reported answers.
[[record]]
binder = "KKLDTVFVKLSLFTER [SEQ ID NO 319]"
quantity_name = "RAMPO Score"
numeric_value = 547

[[record]]
binder = "KKLDTFDVKLSLFTER [SEQ ID NO 492]"
quantity_name = "RAMPO Score"
numeric_value = 301

[[record]]
binder = "KKLDTFFVKLSLYTER [SEQ ID NO 503]"
quantity_name = "RAMPO Score"
numeric_value = 291

[[record]]
binder = "KKLDNFFVKLSLFTER [SEQ ID NO 306]"
quantity_name = "RAMPO Score"
numeric_value = 436

[[record]]
binder = "KKLCTFFVKLSLFTER [SEQ ID NO 449]"
quantity_name = "RAMPO Score"
numeric_value = 344

[[record]]
binder = "KKLDTFFVKLSLITER [SEQ ID NO 365]"
quantity_name = "RAMPO Score"
numeric_value = 468


Hi team, please reply with RAMPO Score for each item in this list.
1. KKLDTFFVKLSSFTER [SEQ ID NO 357]
2. KKLDEFFVKLSLFTER [SEQ ID NO 456]
3. KKLDTFRVKLSLFTER [SEQ ID NO 432]
4. KKGDTFFVKLSLFTER [SEQ ID NO 287]
5. KHLDTFFVKLSLFTER [SEQ ID NO 418]
6. KKLDTFFVKLSLTTER [SEQ ID NO 373]

OUTPUT:
1: 478; 2: 341; 3: 369; 4: 563; 5: 394; 6: 494
